B1: TPR t1 (parent)
chain: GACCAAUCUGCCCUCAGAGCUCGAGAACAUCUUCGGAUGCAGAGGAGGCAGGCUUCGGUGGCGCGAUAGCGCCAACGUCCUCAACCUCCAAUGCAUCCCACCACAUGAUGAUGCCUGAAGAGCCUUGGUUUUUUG

variants of: B1; experiment: polymerase ribozyme fitness, log enrichment relative to wild type (log ratio); higher = more active; in vitro selection for triplet polymerase activity
Mark f for polymerase ribozyme fitness (log ratio) values under -1, and t for everything at or above.

Reference set, count: 8
Please check the record C15U C79G C98U and state if its polymerase ribozyme fitness (log ratio) is at or above -1. f

Threshold query (polymerase ribozyme fitness (log ratio) >= -1) on C12A A24U U32A C99A U116C U130G f

I'd appreciate it if you could say whether A41C C70A has polymerase ribozyme fitness (log ratio) at least equal to -1. f

Please check the record C62U C82A and state if its polymerase ribozyme fitness (log ratio) is at or above -1. f

Does polymerase ribozyme fitness (log ratio) meet or surpass -1 for C56U A75U C86U ? t

Is polymerase ribozyme fitness (log ratio) at least -1? Consider C62A G113C f

Hi team, for A18C C104U C123G , is the recorded polymerase ribozyme fitness (log ratio) at or above -1? t

Say whether G57U C62U U81A shows polymerase ribozyme fitness (log ratio) of -1 or more. t

New cases:
I'd appreciate it if you could say whether G47U G77A has polymerase ribozyme fitness (log ratio) at least equal to -1. f

Is it the case that C20A A91C has polymerase ribozyme fitness (log ratio) reaching or exceeding -1? f

Has C72U a recorded polymerase ribozyme fitness (log ratio) greater than or equal to -1? t
